What residual activity was measured for each of the following?
TARGET ENTITY: DAPK2 (human) (UniProt Q9UIK4)
Sequence (Q9UIK4 whole entry, looked up): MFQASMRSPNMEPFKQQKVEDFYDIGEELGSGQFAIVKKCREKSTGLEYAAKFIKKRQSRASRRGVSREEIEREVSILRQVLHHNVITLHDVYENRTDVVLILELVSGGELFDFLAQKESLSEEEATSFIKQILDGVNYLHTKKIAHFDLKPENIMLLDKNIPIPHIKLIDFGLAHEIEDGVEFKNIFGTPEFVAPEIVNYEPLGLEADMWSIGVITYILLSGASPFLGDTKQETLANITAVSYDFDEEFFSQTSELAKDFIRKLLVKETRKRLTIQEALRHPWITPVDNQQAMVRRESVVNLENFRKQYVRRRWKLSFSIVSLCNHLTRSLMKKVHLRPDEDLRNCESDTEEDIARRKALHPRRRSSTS
ASSAY: radiometric filter-binding kinase assay, Kinase HotSpot
MEASUREMENT CONTEXT: compound 0.5 µM; ATP 10 µM
Answers are plain numbers, in %.

INSERT INTO measurements (smiles_str, target_entity, endpoint_result) VALUES
  ('CC(C)(C)c1cc(C=C(C#N)C#N)cc(Br)c1O', 'DAPK2 (human) (UniProt Q9UIK4)', 108),
  ('O=C1NC(=O)c2c1c1c3ccccc3[nH]c1n1cncc21', 'DAPK2 (human) (UniProt Q9UIK4)', 43.8),
  ('Fc1ccc(-c2nc3n(c2-c2ccncc2)CCS3)cc1', 'DAPK2 (human) (UniProt Q9UIK4)', 113),
  ('N#C/C(=C\c1ccc(O)c(O)c1)C(=O)NCc1ccccc1', 'DAPK2 (human) (UniProt Q9UIK4)', 98.5),
  ('c1ccc2c(-c3ccncc3)c[nH]c2c1', 'DAPK2 (human) (UniProt Q9UIK4)', 108),
  ('CN(C)c1ccc(/C=C2\C(=O)Nc3ccccc32)cc1', 'DAPK2 (human) (UniProt Q9UIK4)', 105),
  ('COc1ccc(C(=O)Nc2sc3c(c2C(N)=O)CCCC3)cc1OC', 'DAPK2 (human) (UniProt Q9UIK4)', 106),
  ('O=C1C(Cl)=C(N2C(=O)CCC2=O)C(=O)c2ccccc21', 'DAPK2 (human) (UniProt Q9UIK4)', 133);

List residual activity for every entry below, keeping the order given.
1. O=C1Nc2ccc(Br)cc2/C1=C\c1cc2c([nH]1)CCCC2
2. COc1ccc(Cl)cc1NC(=O)Nc1cc(C)nc2ccccc12

[102, 99.1]
